Cited source for all entries: paper PMC7619190

TARGET UNDER TEST: human SRC SH2 domain (Gln147-Lys252), wild type (human, UniProt P12931-1 147-252)
TEST PROTOCOL: ITC; SH2 pretreated with 1 mM TCEP
pKd: −log10 of the molar value. Where no end group is shown, it is not given here. [ ]: non-standard residue; d: D form. pY = N[C@@H](Cc1ccc(OP(=O)(O)O)cc1)C(=O)O

>  <BINDER>
EPQ[pY]EEIP [optimized SRC binding phosphopeptide (EPQpYEEIP)]

>  <pKd>
6.53

$$$$
